Listed below: TGI values for each entry.
system: EKVX NSCLC; test: NCI tumour cell line growth inhibition, 48 h

{"molecule": "O=c1[nH]c2ccc(C(F)(F)F)cc2nc1Cc1ccccc1", "measured-quantity": "TGI", "obs-value": "> 100 µM"}

Alright, here's another molecule for you.
For EKVX NSCLC, provide TGI of Cc1cn(C2CC(n3cncn3)C(C(C)O)O2)c(=O)[nH]c1=O (stereo unspecified) please.
> 100 µM

* * *

system: K-562 leukemia; assay: NCI tumour cell line growth inhibition, 48 h; in the data active = GI50 below about 0.43 µM; inactive = the rest
Give one outcome, nothing more. List: 1 (yes) for active, 0 (no) for inactive

Solved cases below.
{"compound": "C/C=C(\\C)C(=O)O[C@H]1C=CC(=O)O[C@H]1CC[C@H](O)[C@H](C)O", "group-label": "0 (no)"}
{"compound": "Nc1cc(N)c2nc(-c3ccccc3)c(Sc3ccc(Cl)c(Cl)c3)nc2c1", "group-label": "0 (no)"}
{"compound": "COc1cc(C2C3=C(COC3=O)Oc3cc4c(cc32)OCO4)cc(OC)c1OC (configuration not stated)", "group-label": "1 (yes)"}
{"compound": "Oc1ccccc1N=Cc1c(O)ccc2ccccc12", "group-label": "0 (no)"}
{"compound": "COc1cc(-c2cc(/C=C/C(=O)c3ccc(N)cc3)[nH]n2)cc(OC)c1OC", "group-label": "0 (no)"}

How was CCN(CC)CCNC(=O)c1cn2ncnc(Oc3ccc(NC(=O)Nc4ccc(Cl)c(C(F)(F)F)c4)cc3)c2c1C classified in this test?
1 (yes)

Each compound tested received a call. Report the one for CSCCC(NC(=O)CNC(=O)C(CC(=O)O)NC(=O)C(NC(=O)C(NC(=O)C(NC(=O)CNC(=O)C(CCC(N)=O)NC(=O)C(CCSC)NC(=O)C(CC(=O)O)NC(=O)C(C)NC(=O)C(C)NC(=O)C(NC(=O)C(CO)NC(=O)C(N)CC(C)C)C(C)O)C(C)C)C(C)C)C(C)O)C(=O)NC(C)C(=O)NC(CO)C(=O)NCC(=O)NC(CC(C)C)C(=O)NC(CC(=O)O)C(=O)NC(CCCCN)C(=O)NC(CC(=O)O)C(=O)NC(Cc1ccc(O)cc1)C(=O)NC(CC(C)C)C(=O)NC(CCCCN)C(=O)N1CCCC1C(=O)NC(CC(=O)O)C(=O)NC(CC(=O)O)C(=O)O (configuration not stated) .
0 (no)

I'd appreciate the recorded outcome for Cc1ccc(NCCN2CCCCC2)c2c(=O)c3ccccc3sc12 from this test.
0 (no)

Please indicate how the test categorized O=C(COc1cccc(/C=C2/Oc3ccccc3C2=O)c1)Nc1nccs1 .
0 (no)

What did the test return for COc1ccc2c(c1)OCC1c3cc(O)ccc3OC21 (configuration not stated) ?
0 (no)

Query: recorded result category for CN1C(=O)N(C)C2C1NN=c1s/c(=C\c3ccccc3F)c(=O)n12 (configuration not stated) in this test
1 (yes)

Per the assay record, what outcome was assigned to C[C@H](O)CNc1cc(-c2[nH]c3cccnc3c2-c2ccc(F)cc2)ccn1 ?
0 (no)

* * *

tested on: OVCAR-5 ovarian; experiment: NCI tumour cell line growth inhibition, 48 h
Reported TGI by item:

Give the measured TGI of NC1=NS(=O)(=O)Nc2nc(-c3ccccc3)c(-c3ccccc3)nc21 .
> 100 µM

* * *

system: HS 578T breast; assay: NCI tumour cell line growth inhibition, 48 h
Below is a list of entries, each paired with its recorded TGI value.

These solved cases illustrate the format of a correct answer.
{"compound": "COc1ccc(N2C(=O)C3c4[nH]c5ccc(C)cc5c4C4CCC(c5ccccc5)CC4C3C2=O)cc1 (stereo unspecified)", "obs-value": "> 73.4 µM"}
{"compound": "O=c1cc(-c2ccccc2)[nH]c2ccc(N3CCCCC3)cc12", "obs-value": "> 100 µM"}
{"compound": "O=C(c1ccc(Cl)c(Cl)c1)N(Cc1cccnc1)C(=S)N(Cc1cccnc1)C(=O)c1ccc(Cl)c(Cl)c1", "obs-value": "> 100 µM"}
{"compound": "O=C(COc1cccc(/C=C2/Oc3ccccc3C2=O)c1)Nc1nccs1", "obs-value": "> 100 µM"}

Value wanted: TGI (HS 578T breast) of entry O=P(O)(O)OC1OC(CO)C(O)C(O)C1O (stereo unspecified)
> 100 µM

What TGI appears in the records for this compound with HS 578T breast? COc1ccc2c(c1)OCC1c3cc(O)ccc3OC21 (stereo unspecified)
> 100 µM

* * *

system: M19-MEL melanoma; experiment: NCI tumour cell line growth inhibition, 48 h
Listed next: entries and their corresponding TGI.

Example entries and their recorded answers appear below.
{"compound": "Cc1ncc(CO)c(C=NCCCCCCN=Cc2c(CO)cnc(C)c2[O-])c1[O-].[Cu+2]", "measurement-target": "M19-MEL melanoma", "TGI": "> 31.6 µM"}
{"compound": "C[C@]12Cc3cn[nH]c3C(=O)C1CC[C@@H]1C2CC[C@@]2(C)C1CC[C@]2(C)O (some centres not stated)", "measurement-target": "M19-MEL melanoma", "TGI": "> 100 µM"}
{"compound": "O=C1OC(c2cccc(C(F)(F)F)c2)c2ccc3ccccc3c21 (configuration not stated)", "measurement-target": "M19-MEL melanoma", "TGI": "> 100 µM"}
{"compound": "CC#CC(OCC)(OCC)OCC", "measurement-target": "M19-MEL melanoma", "TGI": "> 100 µM"}

Any idea what TGI was measured for NC1CCC[C@H]1O (some centres not stated) ?
> 100 µM

Item CC(=O)CC(=O)Nc1c(C)[c]([Hg][O]C(C)=O)c(C)[c]([Hg][O]C(C)=O)[c]1[Hg][O]C(C)=O has what recorded TGI?
36.5 µM

Need TGI, item C=C(Nc1ccc(OC)cc1OC)C(=O)Cc1cccc[n+]1[O-]
> 100 µM

* * *

Quick reference: TGI of the listed items.
tested on: DMS 114 small cell lung; assay: NCI tumour cell line growth inhibition, 48 h

In the examples that follow, each entry is paired with its recorded TGI.
{"compound": "CCN(CC)CCNc1ccc2ncn3c4ccccc4c(=O)c1c23", "measurement-target": "DMS 114 small cell lung", "TGI": "17.5 µM"}
{"compound": "Cc1cccc(-c2nnc3s/c(=C\\c4ccc5c(c4)OCO5)c(=O)n23)c1", "measurement-target": "DMS 114 small cell lung", "TGI": "> 100 µM"}
{"compound": "O=C(CCc1n[nH]c(=S)o1)Nc1cc(Cl)c(Cl)cc1Cl", "measurement-target": "DMS 114 small cell lung", "TGI": "> 100 µM"}
{"compound": "Cn1c(=O)c2c3ccccc3c(C(=O)c3ccccc3)n2c2ccccc21", "measurement-target": "DMS 114 small cell lung", "TGI": "> 100 µM"}
{"compound": "CC1CCN(CCC(=O)CC(c2ccccc2)c2c(O)c3ccccc3oc2=O)CC1 (stereo unspecified)", "measurement-target": "DMS 114 small cell lung", "TGI": "> 100 µM"}

Entry under review: Cc1ccccc1OCC(COC(=O)Nc1ccccc1)OC(=O)Nc1ccccc1 (stereo unspecified) . Reported TGI?
> 100 µM

Sample CC(=O)N(C)c1ccc2ncccc2c1[N+](=O)[O-] — what was its TGI?
> 100 µM

What value of measured TGI is listed for Nc1nc(=S)c2c(ncn2CC(O)CO)[nH]1 (stereo unspecified) ?
> 100 µM

* * *

Catalogue of TGI values
system: OVCAR-5 ovarian; assay: NCI tumour cell line growth inhibition, 48 h

{"molecule": "C=C(CN(C)C)C1(c2ccccc2)CC2(CCCC2)C(=O)O1 (stereo not given)", "TGI": "> 100 µM"}
{"molecule": "CNc1cc(OCc2ccccc2)c(OC)cc1C(=O)N1CCC[C@H]1CO", "TGI": "> 100 µM"}
{"molecule": "O=C1C(=C/C=C2/SC(c3ccccc3)(c3ccccc3)c3ccccc32)C(=O)c2ccccc21", "TGI": "> 100 µM"}

Missing value: TGI, OVCAR-5 ovarian, entry N#CC(NCCc1ccccc1)c1ccccc1 (stereo not given) . Fill in?
> 100 µM

Entry O=C1CC[C@@]2(O)[C@H]3Cc4ccc(-c5cccc(O)c5)c5c4[C@@]2(CCN3CC2CC2)[C@H]1O5 , system OVCAR-5 ovarian: what TGI was measured?
> 80.3 µM

Look up TGI with OVCAR-5 ovarian for this molecule: Cc1cn(C2CC(n3cncn3)C(C(C)O)O2)c(=O)[nH]c1=O (stereo not given)
> 100 µM

State its TGI on OVCAR-5 ovarian: Cc1cc(C(=O)NC(C)(C)C)cc(C#Cc2ccc3c4c(oc3c2)C(C)(C)c2cc(NS(C)(=O)=O)ccc2C4=O)n1
> 100 µM

API: value(readout= TGI, system= OVCAR-5 ovarian, query= O=C1/C(=C/c2cccc([N+](=O)[O-])c2)N=C(c2ccccc2)N1c1nc2c(Cl)cc(Cl)cc2s1 )
87.9 µM

What is its TGI for OVCAR-5 ovarian? Entry: CCCOP1(=O)C=CC(Cl)=C(C)C1 (stereo not given)
> 100 µM

Requested read-out TGI, target or system OVCAR-5 ovarian, entry N#Cc1c(-c2ccc(Cl)cc2)cc(-c2ccc(Nc3ccnc4cc(C(F)(F)F)ccc34)cc2)nc1N
88.2 µM
